- experimentalTarget: T1, Human IL2Rγ extracellular domain expressed with a C-terminal myc-myc-hexahistidine tag (human)
- T1 construct: also called hIL-2Rg-MMH; hIL-2RG-MMH
- T1 chain: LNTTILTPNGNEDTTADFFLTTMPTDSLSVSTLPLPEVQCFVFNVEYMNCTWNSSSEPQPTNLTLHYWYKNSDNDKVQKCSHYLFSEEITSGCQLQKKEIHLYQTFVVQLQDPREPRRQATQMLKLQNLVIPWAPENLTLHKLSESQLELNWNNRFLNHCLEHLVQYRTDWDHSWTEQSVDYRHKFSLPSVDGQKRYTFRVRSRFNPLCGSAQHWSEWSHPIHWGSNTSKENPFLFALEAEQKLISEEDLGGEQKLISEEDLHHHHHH
- testMethodNotes: SPR, captured mAb, 25C, dissociation pH 6.0
Reported koff by item:
Give just the numeric value; s⁻¹ need not be written.

H4H12900P (antibody, human IgG4 S228P, kappa, V domains shown, anti-IL2Rgamma mAb expressed with human IgG4 Fc) VH: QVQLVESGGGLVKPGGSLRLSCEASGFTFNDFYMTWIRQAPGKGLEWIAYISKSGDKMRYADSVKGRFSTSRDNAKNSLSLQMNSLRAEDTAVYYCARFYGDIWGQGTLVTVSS VL: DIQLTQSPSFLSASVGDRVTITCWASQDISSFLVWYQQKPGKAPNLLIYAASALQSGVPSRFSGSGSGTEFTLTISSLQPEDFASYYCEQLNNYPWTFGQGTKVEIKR | 0.000692

// next item, koff requested
[in] Look up and state reported koff for H4H12890P (antibody, human IgG4 S228P, kappa, V domains shown, anti-IL2Rgamma mAb expressed with human IgG4 Fc) VH: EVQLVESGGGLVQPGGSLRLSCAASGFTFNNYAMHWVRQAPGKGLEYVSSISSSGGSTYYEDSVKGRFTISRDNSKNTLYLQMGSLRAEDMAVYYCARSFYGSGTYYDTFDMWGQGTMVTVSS VL: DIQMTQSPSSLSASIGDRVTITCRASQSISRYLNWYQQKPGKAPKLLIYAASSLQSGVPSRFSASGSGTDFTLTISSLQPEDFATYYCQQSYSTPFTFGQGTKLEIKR
[out] 0.000636
